This collection of values is drawn from ChEMBL document CHEMBL3433997.

- target-of-assay: Solute carrier family 2, facilitated glucose transporter member 1 (Homo sapiens) (UniProt P11166)
- Sequence (P11166 whole entry): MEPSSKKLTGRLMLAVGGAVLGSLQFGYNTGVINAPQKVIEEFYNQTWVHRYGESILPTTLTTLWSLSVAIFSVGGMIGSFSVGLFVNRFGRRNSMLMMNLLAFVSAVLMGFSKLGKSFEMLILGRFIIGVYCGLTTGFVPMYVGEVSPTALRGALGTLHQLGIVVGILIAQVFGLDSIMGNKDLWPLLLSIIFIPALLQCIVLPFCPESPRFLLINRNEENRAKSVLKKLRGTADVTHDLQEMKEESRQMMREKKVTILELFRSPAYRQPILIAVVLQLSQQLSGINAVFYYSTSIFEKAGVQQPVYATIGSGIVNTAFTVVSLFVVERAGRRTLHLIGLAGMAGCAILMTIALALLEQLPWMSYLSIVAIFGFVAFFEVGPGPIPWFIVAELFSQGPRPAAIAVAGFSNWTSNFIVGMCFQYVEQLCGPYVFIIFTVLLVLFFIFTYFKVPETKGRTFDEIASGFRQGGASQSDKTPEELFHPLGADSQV
- test: ST_JUDE_LEISH: Cytotoxicity at 2uM final concentration against transgenic Leishmania Mexicana promastigotes LmGLUT1 that are glucose transport deficient and complemented with the human glucose transporter GLUT1. Activity is measured by DNA content using SYBR green in vitro
- Assay type: functional
inhibition overview

{"compound": "COc1ccc2nccc(N3CCC(O)(CCNCc4ccc5c(n4)NC(=O)CO5)CC3)c2n1", "inhibition / %": 2.27}
{"compound": "O=C(c1cccs1)N(Cc1cccc(-c2ccc(CNCCc3ccccc3)cc2)c1)C1CCN(Cc2ccccc2)CC1", "inhibition / %": 9.9}
{"compound": "O=S(=O)(c1ccc(Cl)cc1Cl)N1CCCCC(c2ccc(C(F)(F)F)cc2)=N1", "inhibition / %": 0.38}
{"compound": "COc1ccc(OCCCN2CCCCC2)cc1S(=O)(=O)c1ccc(OCc2ccc(C(F)(F)F)cc2)cc1", "inhibition / %": 2.4}
{"compound": "COc1ccc(N2CCN(CCCCNC(=O)c3ccc(NC(=O)c4ccc(OC(F)(F)F)cc4)cc3)CC2)c(OC)c1", "inhibition / %": 5.81}
{"compound": "COc1ccc2ncc(F)c(CCN3CC(O)C(CNCc4ccc5c(c4)OCCO5)C3)c2n1 (stereo not given)", "inhibition / %": 6.54}
{"compound": "CC1(C)N=C(N)N=C(N)N1c1ccc2ccccc2c1", "inhibition / %": 3.26}
{"compound": "Cc1nc(C)n(CC(=O)Nc2cccc(-c3cccc(-c4nc5cc(C(F)(F)F)ccc5[nH]4)c3)c2)n1", "inhibition / %": 10.2}
{"compound": "CC1(C)[C@H]2CC[C@@H](CNc3nc(NCCc4c[nH]cn4)nc(Nc4ccc5c(c4)OCO5)n3)[C@@H]1C2", "inhibition / %": 2.49}
{"compound": "O=C(Nc1nc2cc(S(=O)(=O)NCc3ccc(Cl)c(Cl)c3)ccc2n1CCCn1ccnc1)c1ccc(Cl)cc1", "inhibition / %": 6.51}
{"compound": "Oc1cccc(-c2nc(-c3ccccc3)c(-c3ccc(Oc4ccc(-c5[nH]c(-c6cccc(O)c6)nc5-c5ccccc5)cc4)cc3)[nH]2)c1", "inhibition / %": 1.24}
{"compound": "CCCCCC(=O)N1CCOC(CCN2CCc3c(c4ccccc4n3C)C2)(c2ccc(Cl)c(Cl)c2)C1 (stereo not given)", "inhibition / %": 10.5}
{"compound": "CCCCOP(=O)(COc1ccc(CCN(CC(O)COc2cccc3[nH]c4ccccc4c23)CC(O)COc2cccc3[nH]c4ccccc4c23)cc1)C1CCCCC1 (stereo not given)", "inhibition / %": 3.64}
{"compound": "N=C(N)NC(=O)Nc1ccc(Cl)c(Cl)c1", "inhibition / %": 3.47}
{"compound": "COCCNCc1cccc(-c2ccc3c(Nc4ccc(Oc5cccnc5)cc4)ccnc3c2)c1", "inhibition / %": 1.93}
